// thresholds for melting point classes: lower level (below 60 °C), middle level (60 °C to below 100 °C), upper level (100 °C or more)

ClC1Cc2cc3c(cc21)OCO3 (stereo not drawn) : lower level
CCCCOc1ccc(-c2nnc3n2NC(c2ccc(O)c(OC)c2)S3)cc1 (stereo not drawn) : upper level

## Task // return the class label for Cc1cccc(NC=C2C(=O)NN=C2c2c(O)c3ccccc3n(C)c2=O)c1
## Result upper level

## Task Now try C/C=C/Cl .
## Result lower level

## Task Now try O=[N+]([O-])c1ccc(C(Cl)=Cc2ccc(C=C(Cl)c3ccc([N+](=O)[O-])cc3[N+](=O)[O-])cc2)c([N+](=O)[O-])c1 .
## Result upper level

## Task Now try O=C(c1ccc2ccccc2c1)c1noc(-c2ccc(Cl)cc2)c1S(=O)(=O)c1ccccc1 .
## Result upper level

## Task Now try COc1ccc(O)c([N+](=O)[O-])c1 .
## Result middle level
